# system: PfENT1 (Plasmodium falciparum)
# Construct: expressed in transfected cells; host or cells: fui1Δ yeast (Saccharomyces cerevisiae), co-expressing GFP
# Sequence (Q8IDM6 whole entry): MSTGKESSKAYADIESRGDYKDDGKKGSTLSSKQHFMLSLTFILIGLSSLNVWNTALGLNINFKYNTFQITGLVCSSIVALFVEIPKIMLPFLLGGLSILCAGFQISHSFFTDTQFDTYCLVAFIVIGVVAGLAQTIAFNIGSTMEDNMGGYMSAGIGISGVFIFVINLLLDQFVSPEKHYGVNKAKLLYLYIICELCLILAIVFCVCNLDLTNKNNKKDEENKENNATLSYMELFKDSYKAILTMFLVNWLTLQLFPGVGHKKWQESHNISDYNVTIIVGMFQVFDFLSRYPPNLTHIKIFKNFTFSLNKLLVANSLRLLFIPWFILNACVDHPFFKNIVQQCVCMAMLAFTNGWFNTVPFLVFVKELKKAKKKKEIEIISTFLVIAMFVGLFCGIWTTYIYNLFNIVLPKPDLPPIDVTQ
# Assay type: cell-based
# condition-label: primary HTS, compounds at 10 μM, 125 μM 5-FUrd
# Experimental: A yeast-based high throughput screening (HTS) assay was used to identify compounds that inhibit PfENT1. […] In the primary screen the compounds were tested at a concentration of 10 μM. […] Significant yeast growth in the HTS in 384 well plates was determined by two criteria: 1) turbidity as determined by the optical density at 620 nm (OD620) and 2) GFP fluorescence intensity. […]
The label depends only on Avg Normalized % maximal activity: Y if it is at least 8%, N if it is smaller.

Below are worked cases with known answers.
compound="NCCc1cc(O)c(O)cc1O [compound 84]" group=N
compound="COc1ccc(-c2cnc3ccccc3n2)cc1NC(=O)c1cccs1 [compound 92]" group=N

Confirm if Avg Normalized % maximal activity reported for the compound O=C(Nc1cccc(-c2nc3ncccc3o2)c1)c1cccc(F)c1 [compound 6] is 8% or above.
Y

Decide: Avg Normalized % maximal activity of O=C(Nc1cccnc1)c1cc2cc(C3CC3)cc(C(F)(F)F)n2n1 [compound 100] >= 8%?
N

Values from patent US9695193B2
